Entries and their IC50 values follow.
Test system: DU145 cells
assay_comment: Proliferation assay DU145 (Method 3, crystal violet)
Type: cell-based
particulars: Homo sapiens, DU-145, 96 h; DU145, 4 days incubation; read-out: Inhibition of DU145 cell proliferation IC50
Give just the numeric value; nM need not be written.

structure | val
CS(=O)(=O)Cc1cc(F)cc(Nc2ncc(F)c(-c3ccc(F)c4ccoc34)n2)c1 | 298

Quote DU145 cells IC50 for entry CS(=O)(=O)Cc1cccc(Nc2ncc(F)c(-c3ccc(F)c4ccoc34)n2)c1 . 360

Write IC50 of Cc1cc(CS(C)(=O)=O)cc(Nc2ncc(F)c(-c3ccc(F)c4ccoc34)n2)c1 ; system used: DU145 cells 237
